Test system: HS 578T breast
Experiment: NCI tumour cell line growth inhibition, 48 h
measured_metric: TGI

Examples with answers:
{"compound": "CC(NC(=O)c1ccc(NP(=O)(OCc2ccc([N+](=O)[O-])o2)N(C)CCCCCl)cc1)c1ccc(OCC2CCCCC2)c(C(N)=O)c1 (stereo not given)", "tested_on": "HS 578T breast", "TGI": "42.9 µM"}
{"compound": "N=CN=CC(=S)O[C@@H]1C(=O)N2CCC[C@@]23CCCC[C@@H]13", "tested_on": "HS 578T breast", "TGI": "> 12.5 µM"}
{"compound": "Cc1nc2[nH]ncn2c(=O)c1CCCl", "tested_on": "HS 578T breast", "TGI": "> 10 µM"}
{"compound": "C=C(CO)[C@@H]1CC[C@]2(COC3CCCCO3)CC[C@]3(C)[C@H](CC[C@@H]4[C@@]5(C)C=C(C=O)C(=O)C(C)(C)[C@@H]5CC[C@]43C)[C@@H]12 (stereo not given in full)", "tested_on": "HS 578T breast", "TGI": "0.997 µM"}
{"compound": "CCN(CC)C1C(=O)NC1C#Cc1ccccc1 (stereo not given)", "tested_on": "HS 578T breast", "TGI": "> 100 µM"}

State the measured TGI (HS 578T breast) of O=C(O)CCC(N=NNc1ccc(-c2nc3ccccc3[nH]2)cc1)C(=O)O (stereo not given) > 100 µM

---

System: UACC-257 melanoma
Assay: NCI tumour cell line growth inhibition, 48 h
measured_metric: TGI

Examples with answers:
{"compound": "COc1cc(C2=N/C(=C/c3cccs3)C(=O)O2)cc(OC)c1OC", "tested_on": "UACC-257 melanoma", "TGI": "> 100 µM"}
{"compound": "COc1ccc(/C=C2\\CCC(CCN(C)C)(C3=CCCC3)C2=O)cc1Br (centres undefined)", "tested_on": "UACC-257 melanoma", "TGI": "5.5 µM"}
{"compound": "CC(=O)OC[C@@]12Cc3ccc(C)c(O)c3[C@]1(C)[C@@H](OC(C)=O)[C@]1(O)[C@H]([C@@H](OC(=O)c3ccccc3)[C@@H](C)[C@H]1OC(C)=O)[C@H]2OC(C)=O", "tested_on": "UACC-257 melanoma", "TGI": "> 50 µM"}

State the measured TGI (UACC-257 melanoma) of CN(C)c1snc2c1c(=O)n(C)c(=O)n2C > 100 µM

State the measured TGI (UACC-257 melanoma) of CCn1c(-c2nonc2N)nc2c(C#CC(C)(C)O)ncc(OC[C@H]3CCCNC3)c21 41.2 µM

State the measured TGI (UACC-257 melanoma) of CCc1cc(CCC(=O)Nc2ccccc2[N+](=O)[O-])[nH]c(=S)n1 > 100 µM

---

System: OVCAR-5 ovarian
Assay: NCI tumour cell line growth inhibition, 48 h
Listed next: entries and their corresponding TGI.

Examples with answers:
{"molecule": "CC(=O)OCC(C)(COC(C)=O)N1C(=O)C2C3c4ccccc4C(c4ccccc43)C2C1=O (centres undefined)", "TGI": "> 100 µM"}
{"molecule": "COC(=O)C(C(=O)C(=O)Nc1cccc([N+](=O)[O-])c1)c1nc2ccc([N+](=O)[O-])cc2[nH]c1=O (centres undefined)", "TGI": "> 100 µM"}

Give TGI for CCOC(=O)C(CC/C=C\c1ccccc1)N1CCC[C@H]1C(=O)OC (some centres undefined) > 100 µM

Give TGI for O=C(O/N=C1/CCC/C1=C\c1ccccc1)c1ccc(Cl)c(Cl)c1 > 100 µM

Give TGI for CCS(=O)(=O)CCn1c(=O)c2c(ncn2C)n(C)c1=O > 100 µM
